Tested on: S. aureus
assay-details: Minimum inhibitory concentrations (MICs) for S. aureus of exemplary compounds (Table 2)
Type: cell-based
condition-parameters: Staphylococcus aureus, minimum inhibitory concentrations for S. aureus; read-out: MICs
// assign label 1 if MIC falls strictly below 2 µg/mL, else label 0 (ties count as label 0)

# TODO verify MIC < 2 µg/mL strictly for this molecule: CC(=O)NC[C@H]1CN(c2ccc(-c3ccc(CNc4nc(CNC(=O)[C@H](C)N)ns4)cc3)c(F)c2)C(=O)O1 [Compound 2013] label 1

# TODO verify MIC < 2 µg/mL strictly for this molecule: CC(=O)NC[C@H]1CN(c2ccc(-c3ccc(C(=O)NCc4ccccn4)nc3)c(F)c2)C(=O)O1 [Compound 4187] label 1

# TODO verify MIC < 2 µg/mL strictly for this molecule: COc1ccc(CNCc2ccc(-c3ccc(N4C[C@H](CNC(C)=O)OC4=O)cc3F)cc2)cn1 [Compound 4054] label 1

# TODO verify MIC < 2 µg/mL strictly for this molecule: CC(=O)NC[C@H]1CN(c2ccc(-c3ccc(Cn4cnnn4)nc3)c(F)c2)C(=O)O1 [Compound 1035] label 1

# TODO verify MIC < 2 µg/mL strictly for this molecule: CC(=O)NC[C@H]1CN(c2ccc(-c3ccc([C@@H](O)CNCc4cocn4)cc3)c(F)c2)C(=O)O1 [Compound 4199] label 0

# TODO verify MIC < 2 µg/mL strictly for this molecule: CC(=O)NC[C@H]1CN(c2ccc(-c3ccc(CNCc4c(C)nn(C)c4Cl)cc3)c(F)c2)C(=O)O1 [Compound 4126] label 1

# TODO verify MIC < 2 µg/mL strictly for this molecule: CC(=O)NC[C@H]1CN(c2ccc(-c3ccc(CSc4nc(C)cs4)cc3)c(F)c2)C(=O)O1 [Compound 2031] label 1

# TODO verify MIC < 2 µg/mL strictly for this molecule: CC(=O)NC[C@H]1CN(c2ccc(-c3ccc([C@H](O)Cn4ccnc4)cc3)c(F)c2)C(=O)O1 [Compound 1046] label 1

# TODO verify MIC < 2 µg/mL strictly for this molecule: CC(=O)NC[C@H]1CN(c2ccc(-c3ccc(CNCc4nnn[nH]4)cc3)c(F)c2)C(=O)O1 [Compound 4282] label 0

# TODO verify MIC < 2 µg/mL strictly for this molecule: CC(=O)NC[C@H]1CN(c2ccc(-c3ccc([C@H](O)CN(CCC(F)(F)Cl)Cc4ccccc4)cc3)c(F)c2)C(=O)O1 [Compound 4249] label 0

# TODO verify MIC < 2 µg/mL strictly for this molecule: CC(=O)NC[C@H]1CN(c2ccc(-c3ccc(CNCc4ccc(S(N)(=O)=O)cc4)cc3)c(F)c2)C(=O)O1 [Compound 4093] label 0
